- measurement_protocol: yeast display, Sf9 membrane polyspecificity reagent, FACS + sequencing; frameworks hold sequencing errors
endpoint: polyreactivity (PSR sort gate)

Solved cases (6 shown):
QVQLVESGGGLVQAGGSLRLSCAASGYTFDAYSMGWYRQAPGKERELVAAITTNGGSTYYADSVKGRFTISRDNAKNTVYLQMNSLKPEDTAVYYCNAEYSYEGRYPYDYWGQGTQVTVSS    low polyreactivity
QVQLVESGGGLVQAGGSLRLSCAASGSTFWYYGMGWYRQAPGKERELVAAITRGGSTYYADSVKGRFTISRDNAKNTVYLQMNSLKPEDTAVYYCAAGISVRWSPSYYYWGQGTQVTVSS    high polyreactivity
QVQLVESGGGVVQAGGSLRLSCAASGRIFHYNAMGWYRQAPGKERELVAAISTGGSSNYADSVKGRFTISRDNAKNTVYLQMNSLKPEDTAVYYCAADHPVTYPTSKFDYWGQGTQVTVSS    low polyreactivity
QVHLVESGGGLVQAGGSLRLSCAASGSTFLPNAMGWYRQAPGKERELVAAITNGGGTNYADSVKGRFTISRDNAKNTVYLQMYSLKPEDTAVYYCNADSTYFGGHDYWGPGTQVTVSS    low polyreactivity
QVQLVESGGGLVQAGGSLRLSCAASGFIFLWNAMAWYRQAPGKELDLVAAINRGTSTNYADSVKGRFTISRDNAKNTVYLQMNSLKPEDTAVYYCAVSVLPWQMYSESYAEYDYWGQGTQVTVSS    low polyreactivity
QVQLVESGGGLVQAGGSLRLSCAASGSTSTYYAMGWYRQAPWKERELVAANTLGAGRTYADSEKGRFTISRDNAKNTVSLQMNSLKPEDTAVYYCAADGYISVNYLRYDYWGQGTQVTVSS    low polyreactivity

Problem: Would you kindly share the measured polyreactivity (PSR sort gate) for "QVQLVESGGGLVQAGGSLRLSCAACGSILKQYAMGWYRQAPGKERVLDAAITWRGTGTYYADSVKGRFTISRDNAKKTVYLLMNSLQAEDTAVSYCAAKWYRRTYGYLPYTGIVNYDYWGQGTQLTVSS" ?
Solution: high polyreactivity

Problem: What polyreactivity (PSR sort gate) value was documented for this sequence, "QVQLVESGGGLVQAGGILRLSCASSGSIFVTFAMGWYRQAPGTEREFVAAINWIGGSTYYADSVKGRFTISRDNAKNTVYLQMNSLKPEDTAVYDCGKRYYRRYDYWGQGTQVTVSS" ?
Solution: high polyreactivity

Problem: Which polyreactivity (PSR sort gate) is listed for "QVQLVESGGGLVQAGGSLRLSCAASGSTFTDYDMGWYRQAPGKERELVAAITSGGSTNYADSVKGRFTISRDNAKNTVYLQMISLKPEDTAVYYCAAADADRKYDYWGQGTQVTVSS" ?
Solution: low polyreactivity

Problem: Looking for the measured polyreactivity (PSR sort gate) of "QVQHVESGGGLVQAGGSLRLSCAASGRTFPAYAMGWYRQAPGKERELVAAITYDGGTTYYADSVKGRFTISRYNAKNTVYLQMNSLKPEDTAVYYCADVYDEDQYDYWGQGTQVTVSS" , can you help?
Solution: low polyreactivity

Problem: Which polyreactivity (PSR sort gate) is listed for "QVQLVESGGGLVQAGGSLRLSCAASGGTFERNAMGWYIQAPGKERELVAGMSKISGRTYYADSVKGRFTISRDNAKNTVYLQMNCLKPEDTAVYYCNKVSRSSYGYWGQGTQVTVSS" ?
Solution: high polyreactivity

Problem: // returns reported polyreactivity (PSR sort gate) for input "QVQLVESGGGLVQAGGSLRLSCAASGFIFDWNTMGWYRQAPGKERELVAAITESSGSTYYADSVKGRFTISRDNAKNTVYLQMNSLKPEDTAVYDCAADFSYVYYLYDYWGQGTQVTVSS"
Solution: low polyreactivity

Problem: Please give the measured polyreactivity (PSR sort gate) for this sequence: "QVQLVESGGGLVQAGGSLRLSCAASGRIFVKYAMGWYRQAPGKERELVAAITKSGSSTYYADSVKGRFTISRDNAKNTVYLQMNSLKPEDTAVYYCAALTISRSRTGYYWGQGTQVTVSS"
Solution: low polyreactivity

Problem: Would you kindly share the measured polyreactivity (PSR sort gate) for "QVQLVESGGGLVQAGGSLRLSCAASGFIYGLYAMGWYRQAPGKERELVASISRRGGSTYSADSVKGRVTISRDNAKNTVYLQMNSLKPEDTAVYYCAVDIVSIRGYTYGYWGQGTQVTVSS" ?
Solution: high polyreactivity

Problem: For "QVQLVESGGGLVQAGGSLRLSCAASGFIFRWYTMGWYRQAPGKERELVAAISWRSGSTSYADSVMGRFTISRDNAKNTVYFQMNSLKPEDSAGYYCNADYSSFWTSYDYWGQGTQVTVSS" , what is its reported polyreactivity (PSR sort gate)?
Solution: high polyreactivity

Problem: Can you look up the measured polyreactivity (PSR sort gate) of "QVQLVESGGGLVQAGGSLRLSCAASGSTFLSYVMGWYRQAPGKERELVAAINRDGGRTYYADSVKGRFTISRDNAKNTVYLQMNSLKPEDTAVYYCATTSQATSGPRRKLYYYWGQGTQVTVSS" for me?
Solution: high polyreactivity

Problem: // query polyreactivity (PSR sort gate) value for entry "QVQIVESGGGLVQAGGSLRLSCAASGRTLGFYAMGWYRQAPGKEREFVAAISSSVGRTYYADSVKGRFTISRDNAKNTVYLHMNRLKPEDTAVYYCAAKVSAWKKKSEMNYWGQGTQVTVSS"
Solution: high polyreactivity
